study_system: Vitamin K epoxide reductase complex subunit 1 (Rattus norvegicus, UniProt Q6TEK4)
Sequence (Q6TEK4 whole entry, one chain of several): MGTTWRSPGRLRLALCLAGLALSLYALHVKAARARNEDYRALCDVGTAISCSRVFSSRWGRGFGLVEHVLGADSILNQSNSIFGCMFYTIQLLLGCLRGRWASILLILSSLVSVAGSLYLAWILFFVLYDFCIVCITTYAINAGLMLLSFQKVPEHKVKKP
protocol_notes: Inhibition of VKORC1 in rat liver microsomes in presence of 0.003 to 0.2 mM vitamin K
experimental_readout: Ki (nM)
Numbers only, in nM.

CCCCCCCCCCCC(c1ccc(F)cc1)c1c(O)c2ccccc2oc1=O (stereo not given)	20
CCCCCCCCCCCC(c1ccc(Cl)cc1)c1c(O)c2ccccc2oc1=O (stereo not given)	20
CCCCCCCCc1c(O)c2ccccc2oc1=O	260

Respectfully, I request Ki for each entry included below.
1. CCCCCCCCCCCC(c1ccccc1)c1c(O)c2ccccc2oc1=O (stereo not given)
2. CCCCCCc1c(O)c2ccccc2oc1=O
3. CCCCCCCCCCCCc1c(O)c2ccccc2oc1=O
4. C/C(=C\Cc1c(O)c2ccccc2oc1=O)CCCC(C)CCCC(C)CCCC(C)C (stereo not given)
5. CCCCCCCCCCCC(c1ccc(C(C)(C)C)cc1)c1c(O)c2ccccc2oc1=O (stereo not given)
6. CCCCCCCCCCCC(c1ccc(Cl)cc1Cl)c1c(O)c2ccccc2oc1=O (stereo not given)
7. CC(C)CCCC(C)CCCC(C)CCCC(C)CCc1c(O)c2ccccc2oc1=O (stereo not given)

### Response
1: 30; 2: 3900; 3: 50; 4: 20; 5: 22000; 6: 90; 7: 50

Data credit: ChEMBL document CHEMBL4004874
